Experiment: Cytotoxicity against mock-infected african green monkey Vero 76 cells assessed as reduction in cell viability after 48 to 96 hrs by MTT assay
Type: cell-based
Conditions: chlorocebus sabaeus, mock-infected Vero 76 cells
This listing pairs compounds with measured CC50.
Endpoint name: CC50

Molecule | Endpoint name | Recorded result
COc1ccc(-c2nc3cc4cccnc4c(Cl)c3[nH]2)c(OC)c1 | CC50 | > 100 µM
COc1c(C)c2c(c(O)c1C/C=C(\C)CCC(=O)O)C(=O)OC2 | CC50 | > 12.5 µM
O=[N+]([O-])c1ccc(-c2nc3cc4cccnc4c(Cl)c3n2CC2CCCCC2)cc1 | CC50 | 20 µM

====

Tested on: Vesicular stomatitis virus
Assay: Antiviral activity against Vesicular stomatitis virus Indiana infected in Vero 76 cells after 2 days by crystal violet staining based plaque reduction assay
Format: functional, organism-based
Conditions: Vero 76, 48 h
pEC50: −log10 of the molar value.
Endpoint name: pEC50

Molecule | Target | Recorded result
COc1ccc(-c2nc3cc4cccnc4cc3[nH]2)c(OC)c1 | Vesicular stomatitis virus | < 4.05
CSc1ccc(-c2nc3cc4cccnc4c(Cl)c3[nH]2)cc1 | Vesicular stomatitis virus | < 4.00
Fc1ccc(-c2nc3cc4cccnc4cc3[nH]2)c(F)c1 | Vesicular stomatitis virus | < 4.00
NS(=O)(=O)c1ccc(-c2nc3cc4cccnc4c(Cl)c3[nH]2)cc1 | Vesicular stomatitis virus | < 4.00

====

Experiment: Inhibition of BVDV RNA-dependent RNA polymerase
Parameters: species or system Bovine viral diarrhea virus 1
pIC50: −log10 of the molar value.
Endpoint name: pIC50

Molecule | Recorded result
O=[N+]([O-])c1ccc(-c2nc3cc4cccnc4c(Cl)c3[nH]2)cc1 | 7.22

====

This listing pairs molecules with measured CC50.
Assay: Cytotoxicity against mock-infected african green monkey Vero 76 cells assessed as reduction in cell viability after 48 to 96 hrs by MTT assay
Type: cell-based
Details: chlorocebus sabaeus, mock-infected Vero 76 cells

Molecule | CC50
Fc1ccc(-c2nc3cc4cccnc4cc3[nH]2)c(F)c1 | > 100 µM
CC(=O)c1ccc(-c2nc3cc4cccnc4c(Cl)c3[nH]2)cc1 | > 100 µM
COc1ccc(-c2nc3cc4cccnc4cc3[nH]2)c(OC)c1 | 90 µM
C#C[C@@]1(O)[C@H](O)[C@@H](CO)O[C@H]1n1ccc(N)nc1=O [2'-ETHYNYL-D-CYTIDINE] | > 100 µM
NS(=O)(=O)c1ccc(-c2nc3cc4cccnc4c(Cl)c3[nH]2)cc1 | > 100 µM
Nc1nc2c(ncn2COCCO)c(=O)[nH]1 [ACYCLOVIR] | > 100 µM
FC(F)(F)c1ccc(-c2nc3cc4cccnc4cc3[nH]2)cc1 | > 100 µM
O=c1cnn([C@@H]2O[C@H](CO)[C@@H](O)[C@H]2O)c(=O)[nH]1 [6-AZAURIDINE] | > 12.5 µM
FC(F)(F)c1ccc(-c2nc3cc4cccnc4c(Cl)c3[nH]2)cc1 | > 100 µM
N#Cc1ccc(-c2nc3cc4cccnc4cc3[nH]2)cc1 | 30 µM
CSc1ccc(-c2nc3cc4cccnc4c(Cl)c3[nH]2)cc1 | > 100 µM

====

Test: Cytotoxicity against mock-infected MDBK cells assessed as reduction in cell viability after 72 hrs by MTT assay
Assay type: cell-based, Bos taurus
Conditions: cattle
This listing pairs molecules with measured CC50 at 72 h.
Endpoint name: CC50 at 72 h

Molecule | Endpoint name | Recorded result
COc1ccc(-c2nc3cc4cccnc4cc3[nH]2)c(OC)c1 | CC50 at 72 h | > 100 µM
Clc1c2ncccc2cc2nc(-c3ccoc3)[nH]c12 | CC50 at 72 h | > 100 µM
N#Cc1ccc(-c2nc3cc4cccnc4cc3[nH]2)cc1 | CC50 at 72 h | > 100 µM
N#Cc1ccc(-c2nc3cc4cccnc4c(Cl)c3[nH]2)cc1 | CC50 at 72 h | > 100 µM
NC(=O)c1ncn([C@@H]2O[C@H](CO)[C@@H](O)[C@H]2O)n1 [RIBAVIRIN] | CC50 at 72 h | 5 µM
NS(=O)(=O)c1ccc(-c2nc3cc4cccnc4c(Cl)c3[nH]2)cc1 | CC50 at 72 h | > 100 µM
O=[N+]([O-])c1ccc(-c2nc3cc4cccnc4c(Cl)c3n2CC2CCCCC2)cc1 | CC50 at 72 h | 33 µM
FC(F)(F)c1ccc(-c2nc3cc4cccnc4cc3[nH]2)cc1 | CC50 at 72 h | > 100 µM
CC(=O)c1ccc(-c2nc3cc4cccnc4c(Cl)c3[nH]2)cc1 | CC50 at 72 h | > 100 µM
Fc1ccc(-c2nc3cc4cccnc4cc3[nH]2)c(F)c1 | CC50 at 72 h | > 100 µM
O=[N+]([O-])c1ccc(-c2nc3cc4cccnc4c(Cl)c3[nH]2)cc1 | CC50 at 72 h | > 100 µM
COc1ccc(-c2nc3cc4cccnc4c(Cl)c3n2CC2CCCCC2)cc1 | CC50 at 72 h | 20 µM
C[C@@]1(O)[C@H](O)[C@@H](CO)O[C@H]1n1cnc2c(=O)[nH]c(N)nc21 [2'-B-METHYL-GUANOSINE] | CC50 at 72 h | > 10 µM
FC(F)(F)c1ccc(-c2nc3cc4cccnc4c(Cl)c3[nH]2)cc1 | CC50 at 72 h | > 100 µM
CSc1ccc(-c2nc3cc4cccnc4c(Cl)c3[nH]2)cc1 | CC50 at 72 h | > 100 µM
COc1ccc(-c2nc3cc4cccnc4c(Cl)c3[nH]2)c(OC)c1 | CC50 at 72 h | > 100 µM
